# koff per record follows
Target: T1, cyno FcRn/b2M (cyno, UniProt Q8SPV9 24-297; Q8SPW0 21-119, biotinylated)
T1 construct: bought recombinant biotinylated protein (Immunitrack ITF05 or ACRO FCM-C82W5); also called cFcRn; cFcRn/cb2M
T1 sequence (Q8SPV9 24-297 limits assumed, chain 1 of 2): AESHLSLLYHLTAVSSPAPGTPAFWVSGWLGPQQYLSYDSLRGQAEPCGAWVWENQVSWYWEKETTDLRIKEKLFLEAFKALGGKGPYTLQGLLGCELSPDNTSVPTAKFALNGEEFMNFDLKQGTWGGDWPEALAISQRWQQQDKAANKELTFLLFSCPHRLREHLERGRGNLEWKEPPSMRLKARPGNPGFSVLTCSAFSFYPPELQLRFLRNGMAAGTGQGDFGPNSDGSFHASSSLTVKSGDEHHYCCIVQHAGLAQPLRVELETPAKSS
T1 sequence (Q8SPW0 21-119 limits assumed, chain 2 of 2): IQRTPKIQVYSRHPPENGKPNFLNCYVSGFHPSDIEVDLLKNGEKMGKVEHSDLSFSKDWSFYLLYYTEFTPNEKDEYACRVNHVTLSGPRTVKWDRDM
Assay: SPR pH 6.0;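 note: surface plasmon resonance kinetics at 25 °C, diluted periplasmic extracts injected over immobilized ligand surfaces, 120 s association then 600–3600 s dissociation, running buffer containing 150 mM NaCl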
TEST_READOUT: koff (s⁻¹)

1) T0263018B11 S30M (VHH, name in Kabat numbering, FLAG3-His6 tagged) VHH: EVQLVESGGGVVQPGGSLRLSCAASGFTFMSYAMYWVRQAPGKGLEWVSAISSGGGSTDYADSVKGRFTISRDNSKNTLYLQMNSLRPEDTALYYCAADTLYTSLTWYSYWGQGTLVTVSS; 0.00069
2) T0263018B11 F27L (VHH, name in Kabat numbering, FLAG3-His6 tagged) VHH: EVQLVESGGGVVQPGGSLRLSCAASGLTFSSYAMYWVRQAPGKGLEWVSAISSGGGSTDYADSVKGRFTISRDNSKNTLYLQMNSLRPEDTALYYCAADTLYTSLTWYSYWGQGTLVTVSS; 0.001
3) T0263018B11 T96I (VHH, name in Kabat numbering, FLAG3-His6 tagged) VHH: EVQLVESGGGVVQPGGSLRLSCAASGFTFSSYAMYWVRQAPGKGLEWVSAISSGGGSTDYADSVKGRFTISRDNSKNTLYLQMNSLRPEDTALYYCAADILYTSLTWYSYWGQGTLVTVSS; 0.00042
4) T0263018B11 S100W (VHH, name in Kabat numbering, FLAG3-His6 tagged) VHH: EVQLVESGGGVVQPGGSLRLSCAASGFTFSSYAMYWVRQAPGKGLEWVSAISSGGGSTDYADSVKGRFTISRDNSKNTLYLQMNSLRPEDTALYYCAADTLYTWLTWYSYWGQGTLVTVSS; 0.00029
